biological target: Equine serum BChE (Equus caballus, UniProt P81908); construct: equine serum BChE; purchased Sigma-Aldrich; host or cells: equine serum; assay: biochemical; conditions: IC50 AChE / IC50 BChE
Sequence (P81908 whole entry): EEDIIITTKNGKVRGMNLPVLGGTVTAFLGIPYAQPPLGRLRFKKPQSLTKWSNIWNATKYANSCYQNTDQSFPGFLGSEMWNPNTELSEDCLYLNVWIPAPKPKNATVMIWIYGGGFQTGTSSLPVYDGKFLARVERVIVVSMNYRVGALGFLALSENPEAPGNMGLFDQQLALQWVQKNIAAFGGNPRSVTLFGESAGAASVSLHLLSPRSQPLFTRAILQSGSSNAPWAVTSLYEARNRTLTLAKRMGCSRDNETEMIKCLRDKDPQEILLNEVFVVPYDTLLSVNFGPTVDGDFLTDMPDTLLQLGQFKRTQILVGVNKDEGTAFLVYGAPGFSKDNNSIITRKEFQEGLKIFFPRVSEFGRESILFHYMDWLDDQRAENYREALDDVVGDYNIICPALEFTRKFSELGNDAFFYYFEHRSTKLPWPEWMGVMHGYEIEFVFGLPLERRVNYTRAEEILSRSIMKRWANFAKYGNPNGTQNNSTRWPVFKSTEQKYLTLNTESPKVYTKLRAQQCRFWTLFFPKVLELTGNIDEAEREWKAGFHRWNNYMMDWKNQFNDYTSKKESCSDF
Please assign Not fulfilled whenever Selectivity for BChE is at or above 5, and Fulfilled whenever it is below.

| Smiles | Class name |
| --- | --- |
| CC(C)(C)c1cc(C=NCCNc2c3c(nc4ccccc24)CCCC3)cc(C(C)(C)C)c1O | Fulfilled |
| CC(C)(C)c1cc(C=NCCNc2c3c(nc4ccccc24)CCCCCC3)cc(C(C)(C)C)c1O | Not fulfilled |
| CC(C)(C)c1cc(C=NCCNc2c3c(nc4ccccc24)CCCCC3)cc(C(C)(C)C)c1O | Not fulfilled |
| CC(C)(C)c1cc(CNCCNc2c3c(nc4ccccc24)CCC3)cc(C(C)(C)C)c1O | Not fulfilled |
| CC(C)(C)c1cc(C=NCCNc2c3c(nc4ccccc24)CCC3)cc(C(C)(C)C)c1O | Fulfilled |

* * *

Measured ABTS^•+-Scavenging Activity, TEAC values are reported for all entries that follow.
Experiment: ABTS radical cation scavenging activity assay
Conditions: ratio of slopes test compound/Trolox; 1 h incubation
Procedure: Radical scavenging activity of the compounds was assessed using the ABTS radical decolorization assay with some modifications. […] The solution of cation radical ABTS^•+ was produced by incubation of ABTS with potassium persulfate in deionized water for 12–16 h at room temperature in the dark. Radical scavenging capacity of the compounds was analyzed by mixing 10 μL of compound with 240 μL of ABTS^•+ working solution in ethanol (100 μM final concentration). […]
Endpoint label: ABTS^•+-Scavenging Activity, TEAC

| Molecule | Endpoint label | Recorded measurement |
| --- | --- | --- |
| CC(C)(C)c1cc(C=NCCNc2c3c(nc4ccccc24)CCCCCC3)cc(C(C)(C)C)c1O | ABTS^•+-Scavenging Activity, TEAC | 1.12 |
| CC(C)(C)c1cc(C=NCCNc2c3c(nc4ccccc24)CCCC3)cc(C(C)(C)C)c1O | ABTS^•+-Scavenging Activity, TEAC | 1.13 |
| CC(C)(C)c1cc(CNCCNc2c3c(nc4ccccc24)CCCCC3)cc(C(C)(C)C)c1O | ABTS^•+-Scavenging Activity, TEAC | 1.35 |
| Cc1cc(C(C)(C)C)c(O)c(C(C)(C)C)c1 [BHT, butylated hydroxytoluene, reference compound] | ABTS^•+-Scavenging Activity, TEAC | 0.98 |
| CC(C)(C)c1cc(C=NCCNc2c3c(nc4ccccc24)CCCCC3)cc(C(C)(C)C)c1O | ABTS^•+-Scavenging Activity, TEAC | 1.11 |
| Cc1c(C)c2c(c(C)c1O)CCC(C)(C(=O)O)O2 (stereo not shown) [Trolox, reference compound] | ABTS^•+-Scavenging Activity, TEAC | 1.0 |
| CC(C)(C)c1cc(CNCCNc2c3c(nc4ccccc24)CCC3)cc(C(C)(C)C)c1O | ABTS^•+-Scavenging Activity, TEAC | 1.39 |

* * *

biological target: Equine serum BChE (Equus caballus); construct: equine serum BChE; purchased Sigma-Aldrich; host or cells: equine serum; experiment: biochemical
pIC50: −log10 of the molar value.
Measured pIC50 values are reported for all entries that follow.
Endpoint label: pIC50

| Compound | Recorded measurement |
| --- | --- |
| CC(C)(C)c1cc(CNCCNc2c3c(nc4ccccc24)CCCCC3)cc(C(C)(C)C)c1O [Compound 8c] | 7.08 |
| CC(C)(C)c1cc(CNCCNc2c3c(nc4ccccc24)CCC3)cc(C(C)(C)C)c1O [Compound 8a] | 6.19 |
